assay: Sensory evaluation of Vermont drink containing the agent; details: 0.005 ppt, ten panels
Measured B: number of panels, acid taste/acid smell slightly strong and slightly cause irritation, listed per entry.
OUTCOME_MEASURE: B: number of panels, acid taste/acid smell slightly strong and slightly cause irritation

INSERT INTO results (compound, measured_value) VALUES
  ('CCCCC/C=C/C/C=C/C=C/C=O [(E,E,E)-2,4,7-tridecatrienal]', 0),
  ('CCCCC/C=C\C/C=C\C=C\C=O [(E,Z,Z)-2,4,7-tridecatrienal]', 0),
  ('CCCCC/C=C\C/C=C/C=C/C=O [(E,E,Z)-2,4,7-tridecatrienal]', 0),
  ('CCCCC/C=C/C/C=C/CCC=O [(E,E)-4,7-tridecadienal]', 0),
  ('CCCCC/C=C\C/C=C\CCC=O [(Z,Z)-4,7-tridecadienal]', 0);
